Assay: In vivo pharmacokinetic assay in rats (intravenous injection and oral administration)
Conditions: male, rat, plasma; SD rats, intravenous injection, 1 mg/kg
experimental.readout: AUC (ng·h/mL)

>>> measured("C[C@@H]1CN(c2ncc(C(F)(F)F)cn2)CCN1C(=O)OCCc1c[nH]c(=O)c(C(F)(F)F)c1")
1060

(1) C[C@@H](Cc1c[nH]c(=O)c(C(F)(F)F)c1)OC(=O)N1CCN(c2ncc(C(F)(F)F)cn2)CC1 (single isomer, unassigned)
(2) O=C(OCCc1c[nH]c(=O)c(C(F)(F)F)c1)N1CCN(c2ncc(C(F)(F)F)cn2)CC1
(3) C[C@@H](Cc1c[nH]c(=O)c(C(F)(F)F)c1)OC(=O)N1CCN(c2ncc(C(F)(F)F)cn2)[C@@H](C)C1
Provide the items ranked by increasing AUC. Labels, ranked as asked.
1, 3, 2
(1: 633 ng·h/mL, 3: 978 ng·h/mL, 2: 5740 ng·h/mL)

* * *

Reported values: IC50 for UniProtKB Q7Z3E1, one per item.
experimental.readout: IC50 (nM)

>>> measured("C[C@@H](Cc1c[nH]c(=O)c(C(F)(F)F)c1)OC(=O)N1CCN(c2ncc(F)cn2)CC1 [Example 65]")
0.65
>>> measured("C[C@@H](Cc1c[nH]c(=O)c(C(F)(F)F)c1)OC(=O)N1CCN(c2ccc(C(F)(F)F)cn2)CC1 [Example 86]")
0.6

(A) O=C(Oc1ccnc(-c2c[nH]c(=O)c(C(F)(F)F)c2)c1)N1CCN(c2ncc(C(F)(F)F)cn2)CC1 [Example 137]
(B) O=C(CCOC[C@@H]1CCCN1c1c[nH]c(=O)c(C(F)(F)F)c1)N1CCN(c2ncc(C(F)(F)F)cn2)CC1 [Example 9]
Higher IC50: A or B ? Please reply using the label of the selected record.
B

(1) O=C(COC[C@@H]1CCCN1c1c[nH]c(=O)c(C(F)(F)F)c1)N1CCN(c2ncc(C(F)(F)F)cn2)CC1 [Example 7]
(2) C[C@@H](Cc1c[nH]c(=O)c(C(F)(F)F)c1)OC(=O)N[C@H]1CCN(c2ncc(C(F)(F)F)cn2)C1 [Example 51]
Which has the smaller recorded IC50, 1 or 2 ? Please reply using the label of the selected record.
2

(I) O=C(O[C@@H]1CCC[C@H]1c1c[nH]c(=O)c(C(F)(F)F)c1)N1CCN(c2ncc(C(F)(F)F)cn2)CC1 (single isomer, unassigned) [Example 70]
(II) Cc1ccc(OC(=O)N2CCN(c3ncc(C(F)(F)F)cn3)CC2)cc1-c1c[nH]c(=O)c(C(F)(F)F)c1 [Example 135]
Which has the smaller recorded IC50, I or II ? Please reply using the label of the selected record.
I

(1) C[C@@H]1CN(C(=O)O[C@@H](C)Cc2c[nH]c(=O)c(C(F)(F)F)c2)C[C@H](C)N1c1ncc(C(F)(F)F)cn1 [Example 162]
(2) O=C(OCCc1c[nH]c(=O)c(C(F)(F)F)c1)N1CCN(c2ncc(C(F)(F)F)cn2)C[C@@H]1CO [Example 107]
Which has the smaller recorded IC50, 1 or 2 ? Please reply using the label of the selected record.
2

* * *

Experiment: In vivo pharmacokinetic assay in mice (intravenous injection and oral administration)
Conditions: male, mouse, plasma; C57BL/6 mice, intravenous injection, 1 mg/kg
Protocol: III. In Vivo Pharmacokinetic Assay in Mice and Rats […] 2) The treated supernatant was diluted with water, and the concentration of the test compound was analyzed by LC/MS/MS. […] Pharmacokinetic parameters were calculated using WinNonlin 8.0, and the pharmacokinetic parameters for intravenous injection and oral administration in mice or rats are shown in Table 2 and Table 3 below: […]
experimental.readout: clearance (mL/min/kg)

(A) O=C(OCCc1c[nH]c(=O)c(C(F)(F)F)c1)N1CCN(c2ncc(C(F)(F)F)cn2)CC1
(B) C[C@@H](Cc1c[nH]c(=O)c(C(F)(F)F)c1)OC(=O)N1CCN(c2ncc(C(F)(F)F)cn2)CC1 (single isomer, unassigned)
Higher clearance: A or B ? Please reply using the label of the selected record.
B
(B: 6.67 mL/min/kg, A: 1.5 mL/min/kg)

* * *

Assay: In vivo pharmacokinetic assay in rats (intravenous injection and oral administration)
Conditions: male, rat, plasma; SD rats, intravenous injection, 1 mg/kg; read-out: Vss
experimental.readout: Vd (L/kg)

>>> measured("C[C@@H](Cc1c[nH]c(=O)c(C(F)(F)F)c1)OC(=O)N1CCN(c2ncc(C(F)(F)F)cn2)[C@@H](C)C1 [Example 93]")
1.9

(A) C[C@@H]1CN(c2ncc(C(F)(F)F)cn2)CCN1C(=O)OCCc1c[nH]c(=O)c(C(F)(F)F)c1 [Example 109]
(B) C[C@@H](Cc1c[nH]c(=O)c(C(F)(F)F)c1)OC(=O)N1CCN(c2ncc(C(F)(F)F)cn2)CC1 (single isomer, unassigned) [Example 35]
(C) O=C(OCCc1c[nH]c(=O)c(C(F)(F)F)c1)N1CCN(c2ncc(C(F)(F)F)cn2)CC1 [Example 3]
Rank by Vd (largest to smallest). Labels, ranked as asked.
B, A, C

* * *

Target: PARP7 (Homo sapiens (Human), UniProt Q7Z3E1)
Sequence (Q7Z3E1 whole entry): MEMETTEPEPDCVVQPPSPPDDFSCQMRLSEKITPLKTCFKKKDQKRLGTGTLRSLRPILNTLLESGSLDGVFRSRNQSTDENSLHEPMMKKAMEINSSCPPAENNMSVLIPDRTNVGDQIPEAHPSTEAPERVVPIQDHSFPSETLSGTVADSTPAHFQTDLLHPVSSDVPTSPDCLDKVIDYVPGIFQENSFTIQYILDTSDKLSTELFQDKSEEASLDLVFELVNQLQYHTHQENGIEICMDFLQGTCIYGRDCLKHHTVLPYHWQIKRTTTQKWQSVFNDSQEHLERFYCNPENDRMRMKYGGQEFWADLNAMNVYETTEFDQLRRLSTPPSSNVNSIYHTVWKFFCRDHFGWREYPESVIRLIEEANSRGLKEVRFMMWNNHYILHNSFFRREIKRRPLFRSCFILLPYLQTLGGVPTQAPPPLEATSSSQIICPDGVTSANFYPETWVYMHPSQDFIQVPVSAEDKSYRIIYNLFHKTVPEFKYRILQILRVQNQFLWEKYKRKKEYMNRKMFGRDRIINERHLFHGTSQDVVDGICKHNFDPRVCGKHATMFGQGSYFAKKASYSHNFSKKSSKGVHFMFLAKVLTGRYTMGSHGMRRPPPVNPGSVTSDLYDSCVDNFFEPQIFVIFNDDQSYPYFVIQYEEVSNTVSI
pIC50: −log10 of the molar value.
experimental.readout: pIC50

Here's what some known entries look like.
>>> measured("C[C@@H](COC(=O)N1CCN(c2ncc(C(F)(F)F)cn2)CC1)c1c[nH]c(=O)c(C(F)(F)F)c1")
8.96
>>> measured("O=C(OCCc1c[nH]c(=O)c(C(F)(F)F)c1)N1CCN(c2cnc(C(F)(F)F)cn2)CC1")
9.31
>>> measured("CC(=O)c1cnc(N2CCN(C(=O)O[C@@H](C)Cc3c[nH]c(=O)c(C(F)(F)F)c3)CC2)nc1")
9.18
>>> measured("C[C@@H](Cc1c[nH]c(=O)c(C(F)(F)F)c1)OC(=O)N1[C@@H](C)CN(c2ncc(C(F)(F)F)cn2)C[C@@H]1C")
9.05
>>> measured("Cc1cnc(N2CCN(C(=O)O[C@@H](C)Cc3c[nH]c(=O)c(C(F)(F)F)c3)CC2)nc1")
9.28
>>> measured("C[C@@H]1CN(c2ncc(C(F)(F)F)cn2)[C@@H](C)CN1C(=O)O[C@@H](C)Cc1c[nH]c(=O)c(C(F)(F)F)c1")
9.23

(A) Cc1cc(OC(=O)N2CCN(c3ncc(C(F)(F)F)cn3)CC2)cc(-c2c[nH]c(=O)c(C(F)(F)F)c2)c1
(B) O=C(c1cc(Cc2c[nH]c(=O)c(C(F)(F)F)c2)ccc1F)N1CCN(c2ncc(C(F)(F)F)cn2)CC1
Higher pIC50: A or B ? Please reply using the label of the selected record.
B
(B: 9.15, A: 8.74)

(1) Cc1[nH]c(=O)c(C(F)(F)F)cc1C[C@H](C)OC(=O)N1CCN(c2ncc(C(F)(F)F)cn2)CC1
(2) CC(Cc1c[nH]c(=O)c(C(F)(F)F)c1)OC(=O)N1CCN(c2ncc(Br)cn2)CC1 (centres unmarked)
Higher pIC50: 1 or 2 ? Please reply using the label of the selected record.
1

* * *

pIC50: −log10 of the molar value.
Reported values: pIC50 for PARP7 (Homo sapiens (Human)), one per item.
experimental.readout: pIC50

(I) CC(OC[C@@H]1CCCN1c1c[nH]c(=O)c(C(F)(F)F)c1)C(=O)N1CCN(c2ncc(C(F)(F)F)cn2)CC1 (stereo partly shown)
(II) CC(Cc1c[nH]c(=O)c(C(F)(F)F)c1)OC(=O)N1CCN(c2ncc(C#N)cn2)CC1 (stereo not shown)
(III) C[C@@H](Cc1c[nH]c(=O)c(C(F)(F)F)c1)OC(=O)N1CCN(c2ncc(C(F)(F)F)cn2)CC1 (single isomer, unassigned)
Sort by pIC50 with smallest numbers at the start of the list. Labels, ranked as asked.
II, I, III
(II: 8.65, I: 8.86, III: 9.28)

* * *

Reported values: IC50 for PARP7 (Homo sapiens (Human), UniProt Q7Z3E1), one per item.
experimental.readout: IC50 (nM)

Here's what some known entries look like.
>>> measured("C[C@@H]1CN(c2ncc(C(F)(F)F)cn2)C[C@H](C)N1C(=O)O[C@@H](C)Cc1c[nH]c(=O)c(C(F)(F)F)c1 [Example 156]")
0.98
>>> measured("C[C@@H](Cc1c[nH]c(=O)c(C(F)(F)F)c1)OC(=O)N1CCN(c2ccc(C(F)(F)F)cc2)CC1 [Example 97]")
0.86

(a) C[C@@H](Cc1c[nH]c(=O)c(C(F)(F)F)c1)OC(=O)N1CC[C@H](Nc2ncc(C(F)(F)F)cn2)C1 [Example 66]
(b) Cc1cnc(N2C[C@H](C)N(C(=O)O[C@@H](C)Cc3c[nH]c(=O)c(C(F)(F)F)c3)C[C@H]2C)nc1 [Example 170]
Which has the smaller recorded IC50, a or b ? Please reply using the label of the selected record.
b
